# System: MDA-MB-231 breast cancer cells
# Experiment notes: MTT cytotoxicity assay on MDA-MB-231 breast cancer cells
# Type: cell-based
# Measurement setup: Homo sapiens, MDA-MB-231, MDA-MB-231, MTT assay, mean ± S.D. of three values; read-out: IC50
pIC50 for assorted compounds
By convention, pIC50 is the negative base-10 log of a molar concentration.

CC1=C(O)C(=O)C(C(C)CCC2OC2(C)C)=CC1=O (centres unmarked) [Compound 4]: 3.94
CC1=C(O)C(=O)C(C(C)CCC(O)C(C)(C)O)=CC1=O (centres unmarked) [Compound 10]: 3.85

Prompt: Looking for the measured pIC50 of CC(=O)OC(C)(C)C(O)CCC(C)C1=C(O)C(=O)C(C)=CC1=O (centres unmarked) [Compound 7] , can you help?
Response: 3.99

Prompt: Look up pIC50: CC1=CC(=O)C(C(C)CCC2OC(C)(C)OC2(C)C)=C(O)C1=O (centres unmarked) [Compound 5]
Response: 4.13

Prompt: Value lookup for pIC50; key = CC1=CC(=O)C(C(C)CCC2OC2(C)C)=C(O)C1=O (centres unmarked) [Compound 3]
Response: 5.02

Prompt: If you can, please state the reported pIC50 value of CC(C)=CCC[C@@H](C)C1=CC(=O)C(C)=C(O)C1=O [Compound 2, isoperezone, reference compound] .
Response: 4.71

Prompt: Would you kindly share the measured pIC50 for CC1=CC(=O)C(C(C)CCC(O)C(C)(C)O)=C(O)C1=O (centres unmarked) [Compound 9] ?
Response: 4.00

Prompt: pIC50 lookup needed for CC1=C(O)C(=O)C(C(C)CCC2OC(C)(C)OC2(C)C)=CC1=O (centres unmarked) [Compound 6] , thanks.
Response: 5.07
